test target: d-enCas12a (Acidaminococcus sp., UniProt U2UMQ6 1-1307, E174R;S542R;K548R;D908A;E993A;D1235A)
protocol description: Spec-seq (native PAGE EMSA with sequencing of bound and unbound); 25 mM Tris-HCl pH 7.4, 150 mM KCl, 5 mM MgCl2, 10% glycerol, 1 mM DTT, 40 ng/uL salmon sperm DNA; 400 nM Cas12a, 480 nM crRNA, 50 nM library, 37 C 1 h; native PAGE at room temperature; high values mean tight binding;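 note: relative affinity from the bound to unbound sequence frequency ratio in Spec-seq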
setup conditions: protein: recombinant
Reported values of binding signal for individual entries

binder | binding signal / lnKA
TGGG (dsDNA) DNA 1: GCTATCTAGTGCTCAGTACGCACTGTGGGAGGAAACTTCTGGCAGGACCAGGTCATGAGATCGGAAGAGCACACGTCTGAACTCCAGTCA DNA 2: TGACTGGAGTTCAGACGTGTGCTCTTCCGATCTCATGACCTGGTCCTGCCAGAAGTTTCCTCCCACAGTGCGTACTGAGCACTAGATAGC RNA: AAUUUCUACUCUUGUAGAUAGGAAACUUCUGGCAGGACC | -5.93
TCTG (dsDNA) DNA 1: GCTATCTAGTGCTCAGTACGCACTGTCTGAGGAAACTTCTGGCAGGACCAGGTCATGAGATCGGAAGAGCACACGTCTGAACTCCAGTCA DNA 2: TGACTGGAGTTCAGACGTGTGCTCTTCCGATCTCATGACCTGGTCCTGCCAGAAGTTTCCTCAGACAGTGCGTACTGAGCACTAGATAGC RNA: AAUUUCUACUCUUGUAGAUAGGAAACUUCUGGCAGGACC | -4.86
CATC (dsDNA) DNA 1: GCTATCTAGTGCTCAGTACGCACTGCATCAGGAAACTTCTGGCAGGACCAGGTCATGAGATCGGAAGAGCACACGTCTGAACTCCAGTCA DNA 2: TGACTGGAGTTCAGACGTGTGCTCTTCCGATCTCATGACCTGGTCCTGCCAGAAGTTTCCTGATGCAGTGCGTACTGAGCACTAGATAGC RNA: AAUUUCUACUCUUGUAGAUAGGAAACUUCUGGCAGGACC | -3.35
GTAT (dsDNA) DNA 1: GCTATCTAGTGCTCAGTACGCACTGGTATAGGAAACTTCTGGCAGGACCAGGTCATGAGATCGGAAGAGCACACGTCTGAACTCCAGTCA DNA 2: TGACTGGAGTTCAGACGTGTGCTCTTCCGATCTCATGACCTGGTCCTGCCAGAAGTTTCCTATACCAGTGCGTACTGAGCACTAGATAGC RNA: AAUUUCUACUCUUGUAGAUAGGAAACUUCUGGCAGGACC | -5.69
GAGA (dsDNA) DNA 1: GCTATCTAGTGCTCAGTACGCACTGGAGAAGGAAACTTCTGGCAGGACCAGGTCATGAGATCGGAAGAGCACACGTCTGAACTCCAGTCA DNA 2: TGACTGGAGTTCAGACGTGTGCTCTTCCGATCTCATGACCTGGTCCTGCCAGAAGTTTCCTTCTCCAGTGCGTACTGAGCACTAGATAGC RNA: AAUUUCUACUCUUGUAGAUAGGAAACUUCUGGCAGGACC | -5.82
AACA (dsDNA) DNA 1: GCTATCTAGTGCTCAGTACGCACTGAACAAGGAAACTTCTGGCAGGACCAGGTCATGAGATCGGAAGAGCACACGTCTGAACTCCAGTCA DNA 2: TGACTGGAGTTCAGACGTGTGCTCTTCCGATCTCATGACCTGGTCCTGCCAGAAGTTTCCTTGTTCAGTGCGTACTGAGCACTAGATAGC RNA: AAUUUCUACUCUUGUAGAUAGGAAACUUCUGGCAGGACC | -2.72
GTTC (dsDNA) DNA 1: GCTATCTAGTGCTCAGTACGCACTGGTTCAGGAAACTTCTGGCAGGACCAGGTCATGAGATCGGAAGAGCACACGTCTGAACTCCAGTCA DNA 2: TGACTGGAGTTCAGACGTGTGCTCTTCCGATCTCATGACCTGGTCCTGCCAGAAGTTTCCTGAACCAGTGCGTACTGAGCACTAGATAGC RNA: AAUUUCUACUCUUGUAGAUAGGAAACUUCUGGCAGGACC | -0.632
CAAC (dsDNA) DNA 1: GCTATCTAGTGCTCAGTACGCACTGCAACAGGAAACTTCTGGCAGGACCAGGTCATGAGATCGGAAGAGCACACGTCTGAACTCCAGTCA DNA 2: TGACTGGAGTTCAGACGTGTGCTCTTCCGATCTCATGACCTGGTCCTGCCAGAAGTTTCCTGTTGCAGTGCGTACTGAGCACTAGATAGC RNA: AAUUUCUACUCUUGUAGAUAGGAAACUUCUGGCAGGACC | -5.54
ACTT (dsDNA) DNA 1: GCTATCTAGTGCTCAGTACGCACTGACTTAGGAAACTTCTGGCAGGACCAGGTCATGAGATCGGAAGAGCACACGTCTGAACTCCAGTCA DNA 2: TGACTGGAGTTCAGACGTGTGCTCTTCCGATCTCATGACCTGGTCCTGCCAGAAGTTTCCTAAGTCAGTGCGTACTGAGCACTAGATAGC RNA: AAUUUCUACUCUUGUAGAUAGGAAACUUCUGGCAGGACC | -5.7
GAAG (dsDNA) DNA 1: GCTATCTAGTGCTCAGTACGCACTGGAAGAGGAAACTTCTGGCAGGACCAGGTCATGAGATCGGAAGAGCACACGTCTGAACTCCAGTCA DNA 2: TGACTGGAGTTCAGACGTGTGCTCTTCCGATCTCATGACCTGGTCCTGCCAGAAGTTTCCTCTTCCAGTGCGTACTGAGCACTAGATAGC RNA: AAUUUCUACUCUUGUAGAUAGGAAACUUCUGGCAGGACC | -5.82
